TESTED TARGET: Human CB2R (Cannabanoid receptor 2) (Homo sapiens (Human), UniProt P34972)
Sequence (P34972 whole entry): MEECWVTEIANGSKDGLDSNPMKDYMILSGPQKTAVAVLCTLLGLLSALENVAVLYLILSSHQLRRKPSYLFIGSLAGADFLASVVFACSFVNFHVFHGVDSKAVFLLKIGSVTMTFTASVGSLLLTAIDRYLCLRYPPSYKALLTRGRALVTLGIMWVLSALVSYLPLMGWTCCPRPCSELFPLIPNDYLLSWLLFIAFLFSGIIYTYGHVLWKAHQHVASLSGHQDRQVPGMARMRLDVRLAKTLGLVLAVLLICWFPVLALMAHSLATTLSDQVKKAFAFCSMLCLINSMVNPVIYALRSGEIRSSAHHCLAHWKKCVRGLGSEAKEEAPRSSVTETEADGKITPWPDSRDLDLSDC
MEASUREMENT DESCRIPTION: CB-2 in vitro cAMP assay (HTRF)
SETUP CONDITIONS: mean where tested more than once
ASSAY ENDPOINT: EC50 (µM)

# example entries with known answers
COMPOUND	READOUT UNITS	EC50
CS(=O)(=O)N1CCC(Nc2ncnc3ccc(C(c4ccc(Cl)cc4)c4ccc(Cl)cc4)cc23)CC1	µM	2.45
Oc1ccc(N2CCC(Nc3ncnc4ccc(C(c5ccc(Cl)cc5)c5ccc(Cl)cc5)cc34)CC2)cc1	µM	0.371
O=S(=O)(CCO)N1CCC(Nc2ncnc3ccc(C(c4ccc(Cl)cc4)c4ccc(Cl)cc4)cc23)CC1	µM	9.4
O=C(c1ccccc1)N1CCC(Nc2ncnc3ccc(C(c4ccc(Cl)cc4)c4ccc(Cl)cc4)cc23)CC1	µM	0.91
O=C(O)c1ccc(S(=O)(=O)N2CCC(Nc3ncnc4ccc(C(c5ccc(Cl)cc5)c5ccc(Cl)cc5)cc34)CC2)cc1	µM	0.323
O=S(=O)(NC1CCN(c2ncnc3ccc(C(c4ccc(Cl)cc4)c4ccc(Cl)cc4)cc23)C1)C(F)(F)F (stereo not drawn)	µM	0.15
CC(Nc1ncnc2ccc(C(c3ccc(Cl)cc3)c3ccc(Cl)cc3)cc12)c1ccc(C(F)(F)F)cc1 (stereo not drawn)	µM	2.5
FC(F)(F)c1ccc(CNc2ncnc3ccc(C(c4ccc(Cl)cc4)c4ccc(Cl)cc4)cc23)nc1	µM	1.73
NC(=O)CS(=O)(=O)N1CCC(Nc2ncnc3ccc(C(c4ccc(Cl)cc4)c4ccc(Cl)cc4)cc23)CC1	µM	7.9
OCCCCOc1nc(NCc2cccc(C(F)(F)F)c2)c2cc(C(c3ccc(Cl)cc3)c3ccc(Cl)cc3)ccc2n1	µM	3.7

P: C[C@H](Nc1ncnc2ccc(C(c3ccc(Cl)cc3)c3ccc(Cl)cc3)cc12)c1cccc(C(F)(F)F)c1 (single isomer, unassigned)
Q: O=C(O)c1ccc(S(=O)(=O)N2CCC(Nc3ncnc4ccc(C(c5ccc(Cl)cc5)c5ccc(Cl)cc5)cc34)CC2)cc1Cl
Which one would you say has the larger EC50 value: P , or Q ? Write down the label attached to your selection.
P
(P: 4.7 µM, Q: 0.434 µM)

P: O=C(CC(F)(F)F)N1CCC(Nc2ncnc3ccc(C(c4ccc(Cl)cc4)c4ccc(Cl)cc4)cc23)CC1
Q: NC(=O)c1ccc(N2CCC(Nc3ncnc4ccc(C(c5ccc(Cl)cc5)c5ccc(Cl)cc5)cc34)CC2)cc1
Which one would you say has the larger EC50 value: P , or Q ? Write down the label attached to your selection.
P
(P: 2.21 µM, Q: 0.461 µM)

1: CS(=O)(=O)NCCOc1nc(NC2CCN(S(=O)(=O)c3ccc(C(=O)O)cc3)CC2)c2cc(C(c3ccc(Cl)cc3)c3ccc(Cl)cc3)ccc2n1
2: O=C(O)c1ccc(S(=O)(=O)N2CCC(Nc3nc(OCCO)nc4ccc(C(c5ccc(Cl)cc5)c5ccc(Cl)cc5)cc34)CC2)cc1
Which one would you say has the larger EC50 value: 1 , or 2 ? Write down the label attached to your selection.
1
(1: 0.917 µM, 2: 0.514 µM)

###

TESTED TARGET: UniProt P21554
Sequence (P21554 whole entry): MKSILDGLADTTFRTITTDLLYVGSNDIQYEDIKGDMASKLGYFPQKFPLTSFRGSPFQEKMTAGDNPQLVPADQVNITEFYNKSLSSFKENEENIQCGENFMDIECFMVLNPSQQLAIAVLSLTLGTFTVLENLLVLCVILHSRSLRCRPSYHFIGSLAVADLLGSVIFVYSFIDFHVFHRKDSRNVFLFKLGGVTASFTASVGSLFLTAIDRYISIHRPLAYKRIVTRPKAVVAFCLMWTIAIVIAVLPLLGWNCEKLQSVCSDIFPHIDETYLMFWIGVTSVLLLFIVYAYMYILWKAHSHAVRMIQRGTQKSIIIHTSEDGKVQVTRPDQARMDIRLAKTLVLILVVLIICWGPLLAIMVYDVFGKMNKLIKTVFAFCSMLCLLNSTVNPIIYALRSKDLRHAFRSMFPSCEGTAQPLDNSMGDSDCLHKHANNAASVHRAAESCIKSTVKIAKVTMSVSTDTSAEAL
MEASUREMENT DESCRIPTION: CB-1 in vitro cAMP assay (HTRF)
SETUP CONDITIONS: mean where tested more than once
pEC50: −log10 of the molar value.
ASSAY ENDPOINT: pEC50

# example entries with known answers
SMILES REPR	pEC50
Clc1ccc(C(c2ccc(Cl)cc2)c2ccc3ncnc(NC4CCN(c5ccccc5)CC4)c3c2)cc1	8.70
OCCOc1nc(NCc2cccc(C(F)(F)F)c2)c2cc(C(c3ccc(Cl)cc3)c3ccc(Cl)cc3)ccc2n1	7.89
O=C(NCCCOc1ccc(CO)cc1)c1ccc(S(=O)(=O)N2CCC(Nc3ncnc4ccc(C(c5ccc(Cl)cc5)c5ccc(Cl)cc5)cc34)CC2)cc1	7.70

I: O=S(=O)(N1CCC(Nc2ncnc3ccc(C(c4ccc(Cl)cc4)c4ccc(Cl)cc4)cc23)CC1)C(F)(F)F
II: CS(=O)(=O)NCCOc1nc(NC2CCN(S(=O)(=O)c3ccc(C(=O)O)cc3)CC2)c2cc(C(c3ccc(Cl)cc3)c3ccc(Cl)cc3)ccc2n1
Which one would you say has the larger pEC50 value: I , or II ? Write down the label attached to your selection.
I
(I: 8.30, II: 6.64)

A: NC(=O)c1ccc(CNc2ncnc3ccc(C(c4ccc(Cl)cc4)c4ccc(Cl)cc4)cc23)cc1
B: CN(Cc1ccc(C(F)(F)F)cc1)c1ncnc2ccc(C(c3ccc(Cl)cc3)c3ccc(Cl)cc3)cc12
# min-compare on pEC50 between A and B Write down the label attached to your selection.
A
